# System: cellular release of amyloid peptide 1-40
# protocol_description: Test 4: Inhibition of cellular release of amyloid peptide 1-40
# Type: cell-based
# condition_details: Cricetulus griseus, Chinese hamster ovary cells transfected with the gene for amyloid precursor protein, 24 hours with compound, amyloid peptide 1-40 in supernatant, read-out: Bace IC50
pIC50: −log10 of the molar value. Where a name gives a salt, the structure may show the parent alone.
We use 7 as the dividing line for pIC50: on or above the line is True, below is False.

For this compound, is measured pIC50 7 or higher? Cc1cc(Br)cnc1C(=O)Nc1ccc(F)c(C2(C(F)F)CN(C(=O)C3CC3)CC(N)=N2)c1 (centres unmarked) True

Identify whether the reported pIC50 of the following compound is 7 or greater: CC(C)N1CC(C)(c2cc(NC(=O)c3ccc(Br)cn3)ccc2F)N=C(N)C1=O (centres unmarked) [Example 9, hydrochloride] True

Dear colleague, could you confirm whether CN1CC(C)(c2cc(NC(=O)c3ccc(Cl)cn3)ccc2F)N=C(N)C1=O (centres unmarked) [Example 5, hydrochloride] has pIC50 at or above 7? False

Is reported pIC50 greater than or equal to 7 here: COC(=O)N1CC(N)=NC(c2cc(NC(=O)c3ccc(Br)cn3)ccc2F)(C(F)F)C1 (centres unmarked) True

hey, is pIC50 for this one >= 7? COCC(=O)N1CC(N)=NC(c2cc(NC(=O)c3ncc(Br)cc3C)ccc2F)(C(F)F)C1 (centres unmarked) True

For this compound, is measured pIC50 7 or higher? COC(=O)N1CC(N)=NC(c2cc(NC(=O)c3ccc(C#N)cn3)ccc2F)(C(F)F)C1 (centres unmarked) True

Assess whether reported pIC50 for Cc1cc(OC(F)F)cnc1C(=O)Nc1ccc(F)c([C@]2(C(F)F)CNCC(N)=N2)c1 (single isomer, unassigned) sits at 7 or higher. True

Reported pIC50 at or above 7? CC1(c2cc(NC(=O)c3ccc(Br)cn3)ccc2F)CN(c2cccnc2)C(=O)C(N)=N1 (centres unmarked) [Example 13, hydrochloride] False

Decide: pIC50 of NC1=N[C@@](c2cc(NC(=O)c3ncc(=O)[nH]c3N)ccc2F)(C(F)F)CNC1 >= 7? False

Please indicate if the recorded pIC50 for CCC1C(N)=NC(C)(c2cccc(NC(=O)c3ccc(Br)cn3)c2)C(=O)N1C (mixture of isomers) meets or exceeds 7. False

Answer whether pIC50 of COc1cnc(C(=O)Nc2ccc(F)c([C@]3(C(F)F)CNCC(N)=N3)c2)c(N)n1 (single isomer, unassigned) is greater than or equal to 7. True

Does pIC50 meet or surpass 7 for COCCN1CC(C)(c2cc(NC(=O)c3ccc(Br)cn3)ccc2F)N=C(N)C1=O (centres unmarked) [Example 11, hydrochloride] ? True

Could you verify whether the entry NC1=NC(c2cc(NC(=O)c3ccc(Br)cn3)ccc2F)(C(F)F)CNC1 (centres unmarked) shows pIC50 of no less than 7? True

Can CC(=O)N1CC(N)=NC(c2cc(NC(=O)c3ncc(OC(F)F)cc3C)ccc2F)(C(F)F)C1 (centres unmarked) be said to have pIC50 at or above 7? True

Check this compound for pIC50 at or above 7: CN1CC(N)=NC(C)(c2cc(NC(=O)c3ccc(Br)cn3)ccc2F)C1=O (centres unmarked) False

Check this compound for pIC50 at or above 7: Cc1cc(Br)cnc1C(=O)Nc1ccc(F)c(C2(C(F)F)CNCC(N)=N2)c1 (centres unmarked) True

Does the reported pIC50 for CCN1CC(C)(c2cc(NC(=O)c3ccc(Br)cn3)ccc2F)N=C(N)C1=O (centres unmarked) [Example 6, hydrochloride] fall at or above the 7 mark? True

Evaluate CC(=O)N1CC(N)=NC(c2cc(NC(=O)c3ncc(Br)cc3C)ccc2F)(C(F)F)C1 (centres unmarked) : pIC50 at minimum 7? True

Test whether the compound Cc1cc(Br)cnc1C(=O)Nc1ccc(F)c(C2(C(F)F)CN(C(=O)OCC(Cl)Cl)CC(N)=N2)c1 (centres unmarked) records pIC50 of 7 or higher. True

Quick check, pIC50 >= 7? CN1CC(N)=NC(C)(c2cccc(NC(=O)c3ccc(Br)cn3)c2)C1=O (centres unmarked) False
